Origin of values: patent US4826984A

Tested on: HL-60 cells
ASSAY_COMMENT: induction of differentiation of HL-60 cells (NBT reduction)
Assay type: cell-based, human
MEASUREMENT_SETUP: 3 μM
Experimental: In order to evaluate the efficacy of the heteroarotinoids to induce HL-60 cell differentiation along the granulocytic maturation pathway, HL-60 cells were grown in a serum-free medium consisting of HRPMI 1640 supplemented with […] 4-(2-hydroxyethyl)-1-piperazineethane sulfonic acid, 5 μg of insulin/mL, and 5 μg of transferrin/mL. […] The ability of the individual cells to produce superoxide can be measured by incubating cells with the water-soluble yellow dye, nitroblue tetrazolium (NBT). […]
ENDPOINT_NAME: cells induced to differentiate

> print(dat)
                              smiles.record                   endpoint.name    observed.result
1  COC(=O)c1ccc(/C=C(\C)c2ccc3c(c2)C(C)(C)CO3)cc1  cells induced to differentiate            3 to 5%
2  COC(=O)c1ccc(/C=C(/C)c2ccc3c(c2)C(C)(C)CO3)cc1  cells induced to differentiate            3 to 5%
3  C/C(=C\c1ccc(C(=O)O)cc1)c1ccc2c(c1)C(C)(C)CCO2  cells induced to differentiate  approximately 15%
4  COC(=O)c1ccc(/C=C(\C)c2ccc3c(c2)C(C)(C)CCO3)cc1  cells induced to differentiate  approximately 15%
